# Study target: dGA (Homo sapiens, UniProt P10636)
# Sequence (P10636 614-707): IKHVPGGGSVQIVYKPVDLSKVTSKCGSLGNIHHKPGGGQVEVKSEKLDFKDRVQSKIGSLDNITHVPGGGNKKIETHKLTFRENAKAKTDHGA
# Assay comment: Biacore X100 SPR binding kinetics of anti-tau scAbs (scAb captured via HuCk), analyte dGA
# Condition label: lead scAbs, Table 24, dissociation rate
# Description: Surface plasmon resonance (SPR) is widely regarded as the gold standard for real time measurement of protein-protein interactions such as antibody binding. […] The single cycle kinetics protocol was similar and utilised the same level of scAb capture. […] Binding responses were analysed in Biacore X100 evaluation software and data fitted to a 1:1 binding model to obtain kinetic and affinity characterisation.
Experimental readout: dissociation rate constant (kd)
Reply with a number, then the unit it belongs to.

Completed entries (count: 2):
Lookup: Suppose we examine the molecule NS2A1: anti-tau clone, SEQ ID NO: 220 (protein, NS2A1 amino acid sequence) scFv: QVQLQESGPSLVKPSQTLSLTCTVSGFSLSTNSVGWVRQAPGKAPEWVAGIDTDGEEGFNPVLKSRLSITRDTSKSQVSLSLSNVTSEDTAVYYCGRSYRTDGLAYGYVQAIDYWGPGLLVTISSEGKSSGASGESKVDDQSVLTQPSSVSGSPGQTVSITCSGSYIGSSGVGWFQQLPGSGLRTIIVASDGRPSGVPDGFSMSKSGNTATLTISSLQAEDEADYFCGSSDRTQYTGLFGSGTRLTVLG ; what dissociation rate constant (kd) value has been reported?
Found: 0.00102 s⁻¹

Lookup: Form field: reported dissociation rate constant (kd) of S1D12: anti-tau binding molecule defined by its CDRs; scAb sequence SEQ ID NO: 32 (protein, S1D12 amino acid sequence) scFv: QVQLQESGPSLVKPSQTLSLTCTVSGFSLNNNAVGWVRQAPGKVPESLVGCSSDGTCYYNSALKSRLDITRDTSKNQISLSLSSVTTDDAAVYYCTRGHYSIYGYDYLGTIDYWGPGLLVTVSSEGKSSGASGESKVDDQAVLTQPSSVSGSLGQRVSITCSGSSSNVGGGNSVGWYQHLPGSGLKTIIYDTNSRPSGVPDRFSGSRSGNTATLTINSLQAEDEGDYYCVTGDSTTHDDLVGSGTRLTVLG
Found: 0.000418 s⁻¹

Please look at the following molecule next.
Lookup: Could you tell me which dissociation rate constant (kd) is on file for S1E12: anti-tau clone, SEQ ID NO: 218 (protein, S1E12 amino acid sequence) scFv: QVQLQESGPSLVKPSQTLSLTCTVSGFSLGSNSVGWVRQAPGKAPEWVAGIDTDGEEGYNPALNSRLSITRDTSKSQVSLSLSSVTSEDTAVYYCGRSYRADGLAYGYVQAIDYWGPGLLVTVSSEGKSSGASGESKVDDRVVRTQPSSVSGSLGQRVSITCSGSFIGISSVGWFQQLPGSGLRTIIVASDGRPSGVPDRFSMSKSGNTATLTISSLQAEDEADYFCGSSDRTQYTGVFGSGTRLTVLG ?
Found: 0.001627 s⁻¹
